Reference source: PubChem BioAssay AID1529

Target: Mitogen-activated protein kinase kinase kinase 3 (Homo sapiens) (UniProt Q99759)
Sequence (Q99759 whole entry, looked up): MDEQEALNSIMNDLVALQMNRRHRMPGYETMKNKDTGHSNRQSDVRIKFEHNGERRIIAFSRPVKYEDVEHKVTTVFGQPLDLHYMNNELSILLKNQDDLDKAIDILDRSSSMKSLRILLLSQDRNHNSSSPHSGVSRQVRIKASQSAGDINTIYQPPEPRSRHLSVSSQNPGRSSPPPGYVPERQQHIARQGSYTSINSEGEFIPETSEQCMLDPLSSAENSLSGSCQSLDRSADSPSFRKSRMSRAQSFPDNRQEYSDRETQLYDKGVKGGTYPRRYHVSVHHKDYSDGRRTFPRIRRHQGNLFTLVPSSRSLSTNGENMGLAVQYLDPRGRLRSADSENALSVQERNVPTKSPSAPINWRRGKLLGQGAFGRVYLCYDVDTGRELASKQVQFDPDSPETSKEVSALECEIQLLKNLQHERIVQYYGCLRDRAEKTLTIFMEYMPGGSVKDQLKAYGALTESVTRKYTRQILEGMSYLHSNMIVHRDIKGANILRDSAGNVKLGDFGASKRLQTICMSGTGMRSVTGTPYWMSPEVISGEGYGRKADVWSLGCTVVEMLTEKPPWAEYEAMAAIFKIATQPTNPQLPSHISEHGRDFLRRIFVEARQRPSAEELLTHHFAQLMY
Experiment: modulators of MEKK3-MEK5 PB1 binding, primary screen, biochemical, wildtype MEKK3, multiplex bead flow cytometry, Alexa488-MEK5 (AID 1529);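 note: Alexa488 bead fluorescence after subtracting the streptavidin-only scavenger bead signal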
Settings: bead-based flow cytometry, Alexa488-MEK5 binding to MEKK3; at 10 µM; actives lie on both sides; 0 = blocked by unlabeled MEK5, 100 = vehicle
The whole screen tested about 290,000 compounds, of which about 4,200 (1.4%) were called active.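 Rule for the calls: active = binding response more than 3 SD above or below the average of its plate-row segment, actives on both sides; inconclusive = wells at one plate position flagged as instrument error; inactive = the rest.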 For the sample, actives were picked, then their nearest neighbours and some compounds at random.
// classify into active, inactive

COc1ccc(CNc2nnnn2C)cc1 | active
CC(C)CN(Cc1c(O)ccc2c(=O)c(-c3ccccc3)coc12)CC(C)C | inactive
COC(=O)c1cc(NC(=O)c2cc(C(C)(C)C)nn2Cc2cccc(C)c2)ccc1N1CCOCC1 | active
COc1ccc(/C=C2\SC(=O)N(CCC(=O)NCCCn3ccnc3)C2=O)cc1 | inactive
CC(=O)Nc1ccc(-c2csc(NC(=O)Nc3ccccc3)n2)cc1 | inactive

For this compound, state the assay outcome: `CCOC(=O)N1CCN(CCC(=O)Nc2cc(OC)ccc2OC)CC1` inactive

Can you check `Cc1ccc(NC(=O)COc2ccc(/C=C3/NC(=O)NC3=O)cc2)cc1` next? inactive

# repeat for `Cn1c(=O)c2c(nc(NCCc3ccccc3)n2Cc2ccccc2)n(C)c1=O` inactive

Can you handle Cc1cccc(N2CCN(S(=O)(=O)c3ccc(-c4cc(C)no4)s3)CC2C)c1 (configuration not stated) next? inactive

Entry `O=S(=O)(c1ccccc1)c1nc(Cc2ccccc2)oc1N1CCOCC1` please inactive

Would you kindly repeat that for `Cc1cccc(NC(=O)c2cc([N+](=O)[O-])ccc2N2CCN(C)CC2)c1` ? inactive

Try this compound too: CC1=NN(C(=O)CCc2ccccc2O)C(O)(C(F)(F)F)C1 (configuration not stated) inactive

* * *

Target: Mitogen-activated protein kinase kinase kinase 3 (Homo sapiens)
Assay: modulators of MEKK3-MEK5 PB1 binding, primary screen, biochemical, wildtype MEKK3, multiplex bead flow cytometry, Alexa488-MEK5 (AID 1529)
Details: bead-based flow cytometry, Alexa488-MEK5 binding to MEKK3; at 10 µM; actives lie on both sides; 0 = blocked by unlabeled MEK5, 100 = vehicle
Screen size: about 290,000 compounds; about 4,200 (1.4%) were called active.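 Rule for the calls: active = binding response more than 3 SD above or below the average of its plate-row segment, actives on both sides; inconclusive = wells at one plate position flagged as instrument error; inactive = the rest.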 Only a selection was taken, and actives are over-represented in it overall.
Result category, one only: true for active, false for inactive

Reference set (4 entries):
COc1cc(NC(=O)c2cccnc2SC)cc(OC)c1 | false
CCOC(=O)c1cc(S(=O)(=O)NCCc2ccc(OC)c(OC)c2)cn1C | false
O=C1CC(N2CCN(c3ccc(F)cc3)CC2)C(=O)N1c1ccccc1 (stereo not given) | false
COc1ccc(/C=C(\NC(=O)c2ccc(OC)c(OC)c2)C(=O)NCCc2c[nH]c3ccccc23)cc1 | false

Per the assay record, what outcome was assigned to `Cc1no[n+]([O-])c1COc1ccccc1/C=C1\NC(=S)NC1=O` ? true

Please do the same for `COc1ccc2nc(C)cc(Nc3cccc(C(=O)O)c3)c2c1` as well. false

Similarly, `O=C(NC1CCCCCC1)c1cccnc1Sc1ccc(Cl)cc1` ? false

And the next one, `CCc1cccc(CC)c1NC(=S)NCc1ccc2[nH]c(C)cc2c1` ? false

// repeat for `Cc1nn(-c2ccccc2)c(NC(=O)c2cccs2)c(-c2ccc(Cl)cc2)c1=O` and report true

// same read-out, input: `Cc1cc(S(=O)(=O)NCC(C)C)ccc1OCC(=O)NC1CC1` false

Record: `COC(C[C@H](O)CC(=O)[C@@H](C)OCc1ccccc1)OC` false

Similarly, `CCOC(=O)c1cn[nH]c1NC(=S)Nc1ccccc1` ? false

* * *

Target: Mitogen-activated protein kinase kinase kinase 3 (Homo sapiens)
Test: modulators of MEKK3-MEK5 PB1 binding, primary screen, biochemical, wildtype MEKK3, multiplex bead flow cytometry, Alexa488-MEK5 (AID 1529);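 note: Alexa488 bead fluorescence after subtracting the streptavidin-only scavenger bead signal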
Conditions: bead-based flow cytometry, Alexa488-MEK5 binding to MEKK3; at 10 µM; actives lie on both sides; 0 = blocked by unlabeled MEK5, 100 = vehicle
The whole screen tested about 290,000 compounds, of which about 4,200 (1.4%) were called active.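 Rule for the calls: active = binding response more than 3 SD above or below the average of its plate-row segment, actives on both sides; inconclusive = wells at one plate position flagged as instrument error; inactive = the rest.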 This excerpt belongs to a sample that is enriched for actives.
Return exactly one item of active, inactive

Worked set:
Clc1cccc(Cl)c1OCCOCCNCc1ccccc1 | inactive
FC(F)(F)c1nc(-c2ccccc2)ncc1-c1nnnn1-c1ccccc1 | active
COc1ccc(C)cc1NC(=O)CN(C)S(=O)(=O)c1ccc2c(c1)n(C)c(=O)c(=O)n2C | inactive
CC(C)CC(=O)NC(=S)NCc1ccccc1 | active
CC(=O)c1cccc(NC(=S)N2CCN(S(C)(=O)=O)CC2)c1 | inactive

Kindly consider the entry below.
For `Clc1ccc(-n2nnnc2-c2cnc(-c3ccccn3)nc2-c2cccs2)cc1` , what call appears in the results of this test? inactive

* * *

Molecular target: Mitogen-activated protein kinase kinase kinase 3 (Homo sapiens)
Experiment: modulators of MEKK3-MEK5 PB1 binding, primary screen, biochemical, wildtype MEKK3, multiplex bead flow cytometry, Alexa488-MEK5 (AID 1529);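 note: Alexa488 bead fluorescence after subtracting the streptavidin-only scavenger bead signal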
Details: bead-based flow cytometry, Alexa488-MEK5 binding to MEKK3; at 10 µM; actives lie on both sides; 0 = blocked by unlabeled MEK5, 100 = vehicle
The whole screen tested about 290,000 compounds, of which about 4,200 (1.4%) were called active.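 Rule for the calls: active = binding response more than 3 SD above or below the average of its plate-row segment, actives on both sides; inconclusive = wells at one plate position flagged as instrument error; inactive = the rest.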 Many of the other results were omitted from the sample, so actives are more common in it than they were.
Outcome field: choose from y for active, n for inactive

Observe how each entry below is paired with its result.
Cc1ccc2c(c1)N(C(=O)CCC(=O)NCc1cccnc1)CCO2 | n
CCc1nc2nc(C)c(NS(=O)(=O)c3ccc4c(c3)CCCC4)c(=O)n2[nH]1 | n

// return assay outcome for `CCn1c(=S)sc2c(=O)n(CC(=O)Nc3cccc(Br)c3)c(C)nc21` n

Same lookup for O=C(NCCCN1CCCCC1)C1CCCN(c2ncnc3c2nc2n3CCCCC2)C1 (stereo not drawn) , please. n

And the next one, `COc1cccc2sc(N(CCCN(C)C)C(=O)C(c3ccccc3)c3ccccc3)nc12` ? n

Then `Cc1[nH]c2ccc(S(N)(=O)=O)cc2c1C` ? y

Now give it for COc1ccc(S(=O)(=O)NC(C)C(=O)NCc2ccncc2)cc1Cl (stereo not drawn) too. n

Same thing, different compound: `CN(c1ccc(C(=O)NCCC2=CCCCC2)cc1)S(C)(=O)=O` n

`CCOC(=O)c1cc2occc2n1CC(=O)N1CCN(C(=O)c2ccco2)CC1` ? y

* * *

Exercise: state measured binding response (% of control) for each of the compounds provided.
Molecular target: Mitogen-activated protein kinase kinase kinase 3 (Homo sapiens)
Experiment: modulators of MEKK3-MEK5 PB1 binding, primary screen, biochemical, wildtype MEKK3, multiplex bead flow cytometry, Alexa488-MEK5 (AID 1529);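 note: Alexa488 bead fluorescence after subtracting the streptavidin-only scavenger bead signal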
Settings: bead-based flow cytometry, Alexa488-MEK5 binding to MEKK3; at 10 µM; actives lie on both sides; 0 = blocked by unlabeled MEK5, 100 = vehicle
In all, about 290,000 compounds went through this assay and about 4,200 (1.4%) were called active. Only a selection was taken, and actives are over-represented in it overall.

Please review the following examples before continuing.
Cc1ccccc1OCC(=O)Nc1ccc(N2CCN(C(=O)C(C)C)CC2)c(Cl)c1 | 122% (active)
Cc1onc(-c2ccccc2Cl)c1C(=O)NCCn1ccc2ccccc21 | 98% (inactive)
Cc1[nH]c2ccccc2c1C(=O)COC(=O)c1c(-c2ccccc2)noc1C | 108% (inactive)
COc1cccc(C(C(=O)NC2CCCC2)N(C(=O)c2ccco2)c2cccc(C(C)=O)c2)c1OC (stereo unspecified) | 98% (inactive)

Dear colleague, could you send me binding response (% of control) for each of the items below? Thanks.
1. CN1CCN(CCNC(=O)Nc2ccccc2[N+](=O)[O-])CC1
2. COCCNc1ccc(-c2n[nH]c(=O)c3ccccc23)cc1[N+](=O)[O-]
3. COC(=O)c1c(C)cc(O)c(C)c1O
4. CC(=O)O[C@H]1c2ccccc2-c2ccccc2[C@@H]1OC(C)=O
5. NS(=O)(=O)c1ccc(-c2ccc(/C=C3\SC(=O)NC3=O)o2)cc1
6. CCOc1ccc(CN2CCNC(=O)C2CC(=O)NCCCC2CCCC2)cc1 (stereo unspecified)

1. 104% (inactive)
2. 103% (inactive)
3. 102% (inactive)
4. 104% (inactive)
5. 100% (inactive)
6. 102% (inactive)

Hey, can you go through the list below and give me binding response (% of control) for every item?
1. CCOC(=O)c1sc2nc(C)nc(Nc3ccc(OC)c(OC)c3)c2c1C
2. Cc1occc(=O)c1OCc1c(Cl)cccc1Cl
3. Cc1ccccc1OCC(=O)Nc1ccc(S(=O)(=O)N2CCOCC2)cc1

1: 101% (inactive); 2: 102% (inactive); 3: 95% (inactive)

Look at each compound and report its binding response (% of control).
1. O=C1CCN(CCCc2ccccc2)CCN1CCO
2. Cc1cc(C)c2nc(N(CCN(C)C)C(=O)/C=C/c3cccs3)sc2c1
3. CCc1ccc(N(CC(=O)Nc2sc3c(c2C(=O)OC)CCCC3)S(C)(=O)=O)cc1
4. NS(=O)(=O)c1ccc(NC(=O)COC(=O)c2ccco2)cc1
5. O=c1[nH]c(=S)[nH]c2[nH]c(=S)[nH]c12
6. CCCc1cc(=S)n2c([nH]c3ccccc32)c1C#N

1. 101% (inactive)
2. 101% (inactive)
3. 92% (inactive)
4. 98% (inactive)
5. 48% [inhibitor] (active)
6. 1% [inhibitor] (active)
